# experiment description: pH-solubility determination (shake flask in aqueous media, HPLC quantitation)
# Type: physicochemical
# assay context: 25 °C, aqueous buffer, thermodynamic from solid, at pH 6.8, read-out: solubility
attribute measured: solubility thermodynamic

For reference, reported solubility thermodynamic for O=C(O)CCC/C=C\C[C@@H]1[C@@H](/C=C/[C@@H](O)CCc2ccccc2)[C@H](O)C[C@@H]1O stands at ~250 mg/mL

---

# experiment description: pH-solubility determination (shake flask in aqueous media, HPLC quantitation)
# Assay type: physicochemical
# assay context: 25 °C, pH 6.5, aqueous buffer, thermodynamic from solid, pH above 6.5, 25° C., FIG. 5, read-out: solubility of the salt
attribute measured: solubility at 48 h

For reference, reported solubility at 48 h for O=C(O)CCC/C=C\C[C@@H]1[C@@H](/C=C/[C@@H](O)CCc2ccccc2)[C@H](O)C[C@@H]1O stands at > 250 mg/mL

---

# experiment description: pH-solubility determination (shake flask in aqueous media, HPLC quantitation)
# Type: physicochemical
# assay context: pH 6.5, aqueous buffer, thermodynamic from solid, pH above 6.5, 25° C., FIG. 5, read-out: solubility of the salt
# Method: The pH was checked, and adjusted if necessary, at intervals of 1, 5, 23, 28 and 47 hrs. An aliquot of sample was taken off at 24 hrs and the final pH was recorded. The suspension was then filtered through a glass fiber C filter. The filtrate was then diluted by an appropriate factor. This was repeated at 48 hours. Quantitation was by HPLC with reference to 6 standard solutions of concentrations between 0.3873-0.0008 mg/ml dissolved in 66:21:13 H2O:ACN:MeOH.
attribute measured: solubility thermodynamic

For reference, reported solubility thermodynamic for O=C(O)CCC/C=C\C[C@@H]1[C@@H](/C=C/[C@@H](O)CCc2ccccc2)[C@H](O)C[C@@H]1O stands at ≥ 250 mg/mL

---

# experiment description: pH-solubility determination (shake flask in aqueous media, HPLC quantitation)
# Type: physicochemical
# assay context: 25 °C, pH 2, aqueous buffer, thermodynamic from solid, pH 2 (solubility of the free acid), 25° C., FIG. 5, read-out: intrinsic solubility
attribute measured: solubility at 48 h (µg/mL)
One number for each entry, in µg/mL.

For reference, reported solubility at 48 h for O=C(O)CCC/C=C\C[C@@H]1[C@@H](/C=C/[C@@H](O)CCc2ccccc2)[C@H](O)C[C@@H]1O stands at 1380
